Cited source: patent US7897602B2

target of assay: PDGFR-β kinase (Homo sapiens)
Construct: recombinant N-terminal 6×His-tagged PDGFR-β kinase domain construct expressed by baculovirus; 6xHis (N); made in house
Sequence (P09619 600-962 limits assumed): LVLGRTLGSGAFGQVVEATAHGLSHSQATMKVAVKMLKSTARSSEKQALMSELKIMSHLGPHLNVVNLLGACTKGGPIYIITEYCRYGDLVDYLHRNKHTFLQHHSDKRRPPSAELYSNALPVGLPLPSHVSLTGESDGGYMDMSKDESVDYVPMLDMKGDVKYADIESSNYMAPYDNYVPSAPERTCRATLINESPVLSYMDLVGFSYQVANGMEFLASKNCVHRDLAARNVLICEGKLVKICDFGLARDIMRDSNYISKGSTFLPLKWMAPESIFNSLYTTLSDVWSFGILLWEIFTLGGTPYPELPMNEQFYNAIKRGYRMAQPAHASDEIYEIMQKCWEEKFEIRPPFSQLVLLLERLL
experimental details: PDGFR-β kinase assay (33P incorporation into Poly(Glu-Tyr))
Assay type: biochemical
measurement parameters: 500 nM test compound
endpoint label: inhibition at 0.5 µM (%)
# unit: % | format: bare number

Q. GET /values?readout=inhibition at 0.5 µM&item= `O=C(O)CCc1c(/C=C2\C(=O)Nc3ccc(F)cc32)[nH]c2c1C(=O)CCC2`
A. 83.5

Q. GET /values?readout=inhibition at 0.5 µM&item= `CCS(=O)(=O)Nc1ccc2c(c1)/C(=C/c1[nH]c3c(c1CCC(=O)O)C(=O)CCC3)C(=O)N2`
A. 8.3

Q. GET /values?readout=inhibition at 0.5 µM&item= `CCOC(=O)CCc1c(/C=C2\C(=O)Nc3ccc(NC(=O)Nc4ccc(Br)cc4)cc32)[nH]c2c1C(=O)CCC2`
A. 12

Q. GET /values?readout=inhibition at 0.5 µM&item= `CC(=O)Nc1ccc2c(c1)/C(=C/c1[nH]c3c(c1CCC(=O)O)C(=O)CCC3)C(=O)N2`
A. 27.2
